System: NCI-H460
Assay: NCI tumour cell line growth inhibition, 48 h
The source made the active and inactive calls. No stated cut-off is given here; in the data, active = GI50 up to about 1.1 µM and inactive = higher.
Below, each entry is listed with its recorded GI50.

[
  {
    "compound": "Cc1nc2c(sc(=S)n2-c2ccccc2)c(=O)[nH]1",
    "experimental result": "> 100 µM (inactive)"
  }
]

// recorded GI50 for COc1ccc(NC(=O)CC(=O)N2N=C(c3ccccc3)C(/N=N/c3ccc(S(=O)(=O)CCOS(=O)(=O)O)cc3)C2=O)cc1 (stereo unspecified) : > 100 µM (inactive)

// recorded GI50 for Clc1ccc(C(c2ccc(Cl)cc2)c2ccccn2)cc1 : 17.1 µM (inactive)

// recorded GI50 for CCC(=O)OCOc1ccc(/C=C2\CCC(CN(C)C)C2=O)cc1 (stereo unspecified) : 15.9 µM (inactive)

// recorded GI50 for OCC1OC(NO)C(O)C(O)C1O (stereo unspecified) : > 100 µM (inactive)

// recorded GI50 for Nc1ccc2ncc(Nc3ccc(Cl)c(Cl)c3)nc2c1 : 27.4 µM (inactive)

// recorded GI50 for O=C(NC(Cc1ccc(I)cc1)C(=O)O)c1ccc(I)cc1 (stereo unspecified) : 57.9 µM (inactive)

// recorded GI50 for c1ccc(-c2nnn(CCN3CCCCC3)n2)cc1 : > 100 µM (inactive)
